Reference source for all entries: patent US20140120083A1

Test: Pharmacokinetics, dog
Assay type: in vivo, Beagle dogs
Conditions: beagle, in vivo, IV, 1 mg/kg, read-out: Vss
measured_property: Vd (L/kg)
Answers are plain numbers, in L/kg.

Using the record for C[C@H](Nc1ncnc2[nH]cnc12)c1cc2cccc(Cl)c2c(=O)n1-c1ccccc1 [Compound 292] , report its Vd.
0.493

---

Test: Pharmacokinetics, dog
Format: in vivo, Beagle dogs
Settings: beagle, in vivo, po, 5 mg/kg, 5 mg/kg (study with 0.5 mg/kg IV)
measured_property: AUC(0-inf) (µg·h/mL)
Answers are plain numbers, in µg·h/mL.

Using the record for C[C@H](Nc1ncnc2[nH]cnc12)c1cc2cccc(Cl)c2c(=O)n1-c1ccccc1 [Compound 292] , report its AUC(0-inf).
107

---

Here we list molecules with their recorded pIC50 when tested on PI3K δ (Homo sapiens, UniProt O00329).
Sequence (O00329 whole entry): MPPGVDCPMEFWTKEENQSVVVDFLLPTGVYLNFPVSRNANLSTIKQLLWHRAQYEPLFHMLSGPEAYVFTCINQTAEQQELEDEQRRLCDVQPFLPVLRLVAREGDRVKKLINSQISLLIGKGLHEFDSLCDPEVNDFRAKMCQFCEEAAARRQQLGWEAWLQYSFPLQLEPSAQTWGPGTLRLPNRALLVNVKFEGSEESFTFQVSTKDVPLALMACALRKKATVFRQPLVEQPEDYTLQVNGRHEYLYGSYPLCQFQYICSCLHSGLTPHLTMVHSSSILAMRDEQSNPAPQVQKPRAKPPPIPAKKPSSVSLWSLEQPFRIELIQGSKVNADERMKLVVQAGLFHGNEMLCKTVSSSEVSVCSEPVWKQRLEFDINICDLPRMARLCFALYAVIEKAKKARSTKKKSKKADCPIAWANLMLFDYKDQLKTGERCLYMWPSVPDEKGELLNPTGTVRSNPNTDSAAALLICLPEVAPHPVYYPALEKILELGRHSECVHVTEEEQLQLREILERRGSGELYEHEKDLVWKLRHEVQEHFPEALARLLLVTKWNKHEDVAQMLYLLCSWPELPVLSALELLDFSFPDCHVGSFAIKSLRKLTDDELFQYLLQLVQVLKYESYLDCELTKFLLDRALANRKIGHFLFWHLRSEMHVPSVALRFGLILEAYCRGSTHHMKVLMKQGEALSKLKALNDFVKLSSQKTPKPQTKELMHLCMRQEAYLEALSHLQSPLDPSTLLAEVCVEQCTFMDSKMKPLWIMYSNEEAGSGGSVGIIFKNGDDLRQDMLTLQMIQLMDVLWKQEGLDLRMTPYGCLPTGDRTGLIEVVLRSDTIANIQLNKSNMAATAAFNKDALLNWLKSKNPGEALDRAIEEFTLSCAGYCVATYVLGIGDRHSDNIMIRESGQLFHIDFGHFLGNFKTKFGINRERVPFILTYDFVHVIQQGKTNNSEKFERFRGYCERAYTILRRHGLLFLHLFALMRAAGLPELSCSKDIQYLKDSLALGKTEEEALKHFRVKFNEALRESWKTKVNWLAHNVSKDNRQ
Sequence (P27986 whole entry partner): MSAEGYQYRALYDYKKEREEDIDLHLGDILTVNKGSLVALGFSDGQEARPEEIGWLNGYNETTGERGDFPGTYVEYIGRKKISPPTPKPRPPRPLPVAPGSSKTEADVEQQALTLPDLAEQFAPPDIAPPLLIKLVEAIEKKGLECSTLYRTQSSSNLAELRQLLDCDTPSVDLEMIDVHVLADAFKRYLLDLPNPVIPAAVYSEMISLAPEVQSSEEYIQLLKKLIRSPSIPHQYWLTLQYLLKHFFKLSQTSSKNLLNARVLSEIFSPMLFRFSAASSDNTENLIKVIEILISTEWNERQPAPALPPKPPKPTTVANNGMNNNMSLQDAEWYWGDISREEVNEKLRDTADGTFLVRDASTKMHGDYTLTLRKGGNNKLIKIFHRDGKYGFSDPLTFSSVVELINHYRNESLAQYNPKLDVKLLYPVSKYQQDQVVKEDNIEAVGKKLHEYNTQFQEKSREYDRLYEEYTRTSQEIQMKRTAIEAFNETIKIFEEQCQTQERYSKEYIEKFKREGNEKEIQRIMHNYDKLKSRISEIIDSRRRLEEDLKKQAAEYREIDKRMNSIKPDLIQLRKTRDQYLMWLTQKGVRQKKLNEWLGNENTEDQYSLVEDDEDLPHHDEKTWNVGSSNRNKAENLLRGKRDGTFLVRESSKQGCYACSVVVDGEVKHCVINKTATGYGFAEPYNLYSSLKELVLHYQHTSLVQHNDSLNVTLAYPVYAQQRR
pIC50: −log10 of the molar value.

Use these answered entries as a reference point.
Using the record for Cc1ccccc1-n1c(Cn2nc(CF)c3c(N)ncnc32)cc2cccc(C)c2c1=O [Compound 310] , report its pIC50.
> 7.00

Using the record for Cc1cccc2cc(Cn3nc(-c4cc(O)cc(F)c4)c4c(N)ncnc43)n(-c3ccccc3F)c(=O)c12 [Compound 3] , report its pIC50.
> 7.00

Using the record for Cc1cccc2cc(Cn3nc(-c4cc(O)cc(F)c4)c4c(N)ncnc43)n(-c3ccccc3)c(=O)c12 [Compound 147] , report its pIC50.
> 7.00

Using the record for Cc1ccccc1-n1c(Cn2nc(-c3ccc4nc(N)[nH]c4c3)c3c(N)ncnc32)cc2cccc(C)c2c1=O [Compound 295] , report its pIC50.
> 7.00

Using the record for CC(=O)Nc1nc2ccc(-c3nn(Cc4cc5cccc(C)c5c(=O)n4C(C)C)c4ncnc(N)c34)cc2s1 [Compound 154] , report its pIC50.
> 7.00

Using the record for Nc1ncnc2c1c(I)nn2Cc1cc2cccc(Cl)c2c(=O)n1C1CC1 [Compound 139] , report its pIC50.
> 7.00

Using the record for Cc1cccc2cc(C(C)Nc3ncnc4[nH]cnc34)n(-c3cc(F)cc(F)c3)c(=O)c12 (stereo not shown) [Compound 222] , report its pIC50.
> 7.00

Using the record for CCc1ccccc1-n1c(Cn2nc(I)c3c(N)ncnc32)cc2cccc(C)c2c1=O [Compound 77] , report its pIC50.
> 7.00

Using the record for Cc1cccc2cc(Cn3nc(-c4cccc(O)c4)c4c(N)ncnc43)n(-c3ccccc3O)c(=O)c12 [Compound 81] , report its pIC50.
> 7.00

Using the record for CNC(=O)c1cccc(-c2nn(Cc3cc4cccc(C)c4c(=O)n3-c3ccccc3C)c3ncnc(N)c23)c1 [Compound 120] , report its pIC50.
> 5.00

Provide the reported pIC50 of each entry below, same order.
1. CC(C)n1c(Cn2nc(-c3cc(O)cc(F)c3)c3c(N)ncnc32)cc2ccccc2c1=O [Compound 136]
2. Cc1cccc2cc([C@H](C)Nc3ncnc4[nH]cc(Br)c34)n(C3CC3)c(=O)c12 [Compound 272]
3. CC(=O)c1nn(Cc2cc3cccc(C)c3c(=O)n2-c2ccccc2)c2ncnc(N)c12 [Compound 319]
4. Cc1ccccc1-n1c(Cn2nc(C#N)c3c(N)ncnc32)cc2cccc(C)c2c1=O [Compound 170]

["> 7.00", "> 7.00", "> 6.00", "> 7.00"]

Provide the reported pIC50 of each entry below, same order.
1. Cc1ccccc1-n1c(Cn2nc(I)c3c(N)ncnc32)cc2cccc(C)c2c1=O [Compound 6]
2. Cc1cccc2cc(Cn3nc(-c4ccc5nc(N)cn5c4)c4c(N)ncnc43)n(-c3ccccc3)c(=O)c12 [Compound 239]

1: > 7.00; 2: > 6.00

---

I'd appreciate it if you could supply pIC50 values for the items below.
Biological target: PI3K γ (Homo sapiens, UniProt P48736)
Sequence (P48736 whole entry): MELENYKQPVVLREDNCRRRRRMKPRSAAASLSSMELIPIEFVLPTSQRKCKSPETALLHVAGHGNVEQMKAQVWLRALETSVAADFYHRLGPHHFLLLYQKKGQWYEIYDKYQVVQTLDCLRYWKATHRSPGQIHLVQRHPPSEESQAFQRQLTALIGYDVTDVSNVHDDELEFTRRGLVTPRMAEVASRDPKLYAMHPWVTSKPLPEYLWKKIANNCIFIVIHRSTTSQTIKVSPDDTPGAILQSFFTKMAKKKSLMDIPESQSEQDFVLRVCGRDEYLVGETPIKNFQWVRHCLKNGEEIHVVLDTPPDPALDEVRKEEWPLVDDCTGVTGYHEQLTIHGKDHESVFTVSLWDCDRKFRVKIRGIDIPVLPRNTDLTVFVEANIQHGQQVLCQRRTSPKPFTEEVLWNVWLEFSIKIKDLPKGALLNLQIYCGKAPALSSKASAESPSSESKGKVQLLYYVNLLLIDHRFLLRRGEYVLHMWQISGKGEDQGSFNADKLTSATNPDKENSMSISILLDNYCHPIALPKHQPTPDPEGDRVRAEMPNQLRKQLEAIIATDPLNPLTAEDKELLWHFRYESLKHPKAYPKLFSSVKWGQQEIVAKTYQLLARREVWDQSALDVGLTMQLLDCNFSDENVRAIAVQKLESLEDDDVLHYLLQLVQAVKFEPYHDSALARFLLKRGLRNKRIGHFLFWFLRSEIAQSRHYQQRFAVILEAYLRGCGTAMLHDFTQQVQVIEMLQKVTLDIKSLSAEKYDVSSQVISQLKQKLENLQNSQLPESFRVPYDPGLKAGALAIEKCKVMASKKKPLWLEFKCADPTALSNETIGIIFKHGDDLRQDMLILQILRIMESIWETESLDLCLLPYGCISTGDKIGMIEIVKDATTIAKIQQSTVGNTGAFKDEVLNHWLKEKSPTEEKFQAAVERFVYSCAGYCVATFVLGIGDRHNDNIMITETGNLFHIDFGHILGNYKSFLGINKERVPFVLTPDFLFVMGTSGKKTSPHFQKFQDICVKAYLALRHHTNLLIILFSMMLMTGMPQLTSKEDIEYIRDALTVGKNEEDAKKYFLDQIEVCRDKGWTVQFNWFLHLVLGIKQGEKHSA
pIC50: −log10 of the molar value.

Provide the reported pIC50 of each entry below, same order.
1. Cc1cccc2cc(Cn3nc(-c4cccc(O)c4)c4c(N)ncnc43)n(-c3ccccc3OCCN3CCOCC3)c(=O)c12
2. Cc1cccc2cc(Cn3nc(-c4ccc(F)c(O)c4)c4c(N)ncnc43)n(C3CCCC3)c(=O)c12
3. Cc1cccc2cc(Cn3nc(-c4ccc5nc(N)oc5c4)c4c(N)ncnc43)n(-c3ccccc3)c(=O)c12
4. Cc1cccc2cc([C@H](C)Nc3c(C#N)cnc4ccccc34)n(-c3ccccc3)c(=O)c12
5. Cc1cccc2cc([C@H](C)Nc3ncnc4[nH]ccc34)n(-c3ccccc3)c(=O)c12
6. CNC(=O)c1nn(Cc2cc3cccc(C)c3c(=O)n2-c2ccccc2)c2ncnc(N)c12

["> 6.00", "> 7.00", "> 6.00", "> 5.00", "> 7.00", "> 5.00"]

Provide the reported pIC50 of each entry below, same order.
1. Cc1cccc2cc(Cn3nc(C#C[C@@H](C)O)c4c(N)ncnc43)n(-c3ccccc3C(C)C)c(=O)c12
2. COCc1nn(Cc2cc3cccc(C)c3c(=O)n2-c2ccccc2C)c2ncnc(N)c12
3. Cc1ccccc1-n1c(Cn2nc(-c3ccc(F)cc3)c3c(N)ncnc32)cc2cccc(C)c2c1=O

["> 7.00", "< 5.00", "> 6.00"]

---

Here we list compounds with their recorded IC50 when tested on PI3K γ (Homo sapiens).

Use these answered entries as a reference point.
Using the record for Cc1cccc2cc([C@H](C)Nc3cc(N)nc(Cl)n3)n(C3CC3)c(=O)c12 , report its IC50.
> 10 µM

Using the record for CC(=O)c1nn(Cc2cc3cccc(C)c3c(=O)n2-c2ccccc2)c2ncnc(N)c12 , report its IC50.
< 10 µM

Using the record for Cc1cccc2cc(Cn3nc(-c4cccc(O)c4)c4c(N)ncnc43)n(-c3ccccc3Cl)c(=O)c12 , report its IC50.
< 0.1 µM

Further cases:
Using the record for Cc1cccc2cc(Cn3nc(-c4cccc(O)c4)c4c(N)ncnc43)n(-c3ccccc3O)c(=O)c12 , report its IC50.
< 0.1 µM

---

Assay: Pharmacokinetics, dog
Assay type: in vivo, Beagle dogs
Settings: beagle, in vivo, po, 5 mg/kg, PO, 5 mg/kg (study with 1 mg/kg IV), read-out: Cmax
measured_property: Cmax (ng/mL)
Numbers only, in ng/mL.

Using the record for C[C@H](Nc1ncnc2[nH]cnc12)c1cc2cccc(Cl)c2c(=O)n1-c1ccccc1 [Compound 292] , report its Cmax.
2370

---

Assay: Clinical study in healthy adult subjects, pharmacokinetics
Type: in vivo, human
Conditions: human, plasma, oral, 5 mg, 5 mg Q12 h, Day 14; mean (% CV); read-out: AUC(0-tau)
measured_property: AUC (ng·h/mL)
Numbers only, in ng·h/mL.

Using the record for C[C@H](Nc1ncnc2[nH]cnc12)c1cc2cccc(Cl)c2c(=O)n1-c1ccccc1 , report its AUC.
1290

---

Experiment: Pharmacokinetics, dog
Format: in vivo, Beagle dogs
Conditions: beagle, in vivo, iv, 1 mg/kg
measured_property: AUC(0-inf) (ng·h/mL)
One number for each entry, in ng·h/mL.

Using the record for C[C@H](Nc1ncnc2[nH]cnc12)c1cc2cccc(Cl)c2c(=O)n1-c1ccccc1 [Compound 292] , report its AUC(0-inf).
6270

---

Experiment: Clinical study in healthy adult subjects, pharmacokinetics
Type: in vivo, human
Conditions: human, plasma, oral, 2 mg, 2 mg Q12 h, Day 14; mean (% CV); read-out: AUC(0-tau)
measured_property: AUC (ng·h/mL)
One number for each entry, in ng·h/mL.

Using the record for C[C@H](Nc1ncnc2[nH]cnc12)c1cc2cccc(Cl)c2c(=O)n1-c1ccccc1 [Compound 292] , report its AUC.
524

---

Assay: Pharmacokinetics, dog
Format: in vivo, Beagle dogs
Details: beagle, in vivo, IV, 0.5 mg/kg
measured_property: clearance (mL/min/kg)
Answers are plain numbers, in mL/min/kg.

Using the record for C[C@H](Nc1ncnc2[nH]cnc12)c1cc2cccc(Cl)c2c(=O)n1-c1ccccc1 [Compound 292] , report its clearance.
0.85

---

Here we list compounds with their recorded IC50 when tested on PI3K β (Homo sapiens).
Sequence (P42338 whole entry): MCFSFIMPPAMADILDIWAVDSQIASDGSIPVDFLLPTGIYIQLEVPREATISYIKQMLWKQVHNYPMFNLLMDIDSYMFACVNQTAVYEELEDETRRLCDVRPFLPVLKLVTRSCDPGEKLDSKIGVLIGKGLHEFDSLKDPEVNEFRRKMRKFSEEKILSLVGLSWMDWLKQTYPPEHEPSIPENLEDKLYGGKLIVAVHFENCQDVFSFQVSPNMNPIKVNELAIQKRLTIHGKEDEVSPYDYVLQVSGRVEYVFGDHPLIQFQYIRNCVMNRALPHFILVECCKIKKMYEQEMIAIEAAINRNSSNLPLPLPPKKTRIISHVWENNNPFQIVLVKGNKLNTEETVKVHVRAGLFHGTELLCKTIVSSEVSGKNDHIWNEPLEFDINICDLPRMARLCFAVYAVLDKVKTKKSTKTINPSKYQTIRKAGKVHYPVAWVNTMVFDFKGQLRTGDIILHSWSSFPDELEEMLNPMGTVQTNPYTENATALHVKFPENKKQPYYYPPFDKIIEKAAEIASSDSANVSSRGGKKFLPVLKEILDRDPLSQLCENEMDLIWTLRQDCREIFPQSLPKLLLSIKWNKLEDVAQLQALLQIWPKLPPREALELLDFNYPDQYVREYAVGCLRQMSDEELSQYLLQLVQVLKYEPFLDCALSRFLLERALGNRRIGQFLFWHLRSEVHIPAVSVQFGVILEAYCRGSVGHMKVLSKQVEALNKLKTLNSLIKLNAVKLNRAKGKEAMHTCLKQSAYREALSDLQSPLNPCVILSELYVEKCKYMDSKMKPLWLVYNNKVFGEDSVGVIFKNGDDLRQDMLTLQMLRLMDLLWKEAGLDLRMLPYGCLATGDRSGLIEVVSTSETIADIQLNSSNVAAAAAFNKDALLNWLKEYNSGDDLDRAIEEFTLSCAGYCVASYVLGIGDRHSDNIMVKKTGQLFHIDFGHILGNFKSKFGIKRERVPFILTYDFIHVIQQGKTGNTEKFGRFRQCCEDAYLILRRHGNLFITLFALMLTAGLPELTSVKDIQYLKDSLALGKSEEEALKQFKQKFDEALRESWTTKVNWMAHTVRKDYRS

Use these answered entries as a reference point.
Using the record for Cc1cccc2cc(Cn3nc(-c4cc(O)cc(F)c4)c4c(N)ncnc43)n(C3CCCCC3)c(=O)c12 [Compound 110] , report its IC50.
< 10 µM

Using the record for Cc1cccc2cc(C(C)Nc3ncnc4[nH]cnc34)n(C3CCN(C)CC3)c(=O)c12 (stereo not shown) [Compound 227] , report its IC50.
< 1 µM

Using the record for CC(=O)Nc1nc2cc(-c3nn(Cc4cc5cccc(C)c5c(=O)n4-c4ccccc4)c4ncnc(N)c34)ccc2s1 [Compound 275] , report its IC50.
> 10 µM

The record that follows has no IC50 shown yet.
Using the record for Cc1ccccc1-n1c(Cn2nc(C#C[C@@H](C)O)c3c(N)ncnc32)cc2cccc(C)c2c1=O [Compound 37] , report its IC50.
> 10 µM
